The reported measurements were obtained from PubChem BioAssay (EPA / NIEHS).

Test: CCTE_Shafer_MEA_acute_spike_number: CCTE's Neural Acute Assay for Total Number of Spikes, Shafer Lab (AID 2284008)
The source made the active and inactive calls. How the source made its calls: active means hit-call score of the fitted dose curve at least 0.9, where 1 is the maximum; inactive means score below 0.9.
Log the outcome using a class from class 1 = active, class 0 = inactive

Known results for molecules:
{"molecule": "CC(C)(C)c1cc(O)c(C(C)(C)C)cc1O", "assignedLabel": "class 1"}
{"molecule": "CNCc1cc(F)ccc1Oc1ccc(Cl)c(Cl)c1", "assignedLabel": "class 1"}
{"molecule": "COc1ccc(S(=O)(=O)N2C(=O)[C@@](c3ccccc3OC)(N3C[C@H](O)C[C@H]3C(=O)N(C)C)c3cc(Cl)ccc32)c(OC)c1", "assignedLabel": "class 1"}
{"molecule": "CC(=O)C(C)=CC1C(C)=CCCC1(C)C (stereo not drawn)", "assignedLabel": "class 0"}
{"molecule": "Cc1ccc2ncccc2c1", "assignedLabel": "class 0"}

Fill in: this test's call for `CCCc1cc(=O)[nH]c(=S)[nH]1` is ___
class 0

What call does the record list for `C=CCc1ccc(O)c(OC)c1` ?
class 0

For `NCC1(Cc2noc(=O)[nH]2)CCCCC1` , which call appears in the assay record?
class 0

Record request — test call for `c1cc(-c2ccncc2)ccn1`
class 0

Answer briefly: the call reported for `C[Si]1(C)O[Si](C)(C)O[Si](C)(C)O[Si](C)(C)O1` in this assay.
class 0
